# assay: Aqueous solubility of compound at room temperature
# Format: physicochemical
# setup-conditions: water
endpoint: solubility (mg/mL)
One number for each entry, in mg/mL.

Which solubility value belongs to "C[n+]1ccn(CCOC(=O)c2ccccc2O)c1.[Cl-]" ? 267

----------
# assay: Cytotoxicity against human Caco2 cells after 24 hrs by MTT assay
# Format: functional, cell-based, Caco-2
# setup-conditions: Homo sapiens, Caco-2, 24 h
Would you kindly list IC50 for each of these compounds?
Give bare numbers, in mM.

INSERT INTO measurements (chemical_smiles, endpoint, value_measured) VALUES
  ('O=C(O)c1ccccc1O', 'IC50', 5),
  ('C[n+]1ccn(CCCOC(=O)c2ccccc2O)c1', 'IC50', 2.55),
  ('C[n+]1ccn(CCOC(=O)c2ccccc2O)c1', 'IC50', 4.77);

Continue with the compound presented below.
Which IC50 value belongs to "COC(=O)[C@H](C)N" ? 6.24
